These measurements were taken from PubChem BioAssay (NCI).

- assay: NCI Yeast Anticancer Drug Screen. Data for the cln2 rad14 strain (AID 165);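 further: 0% = growth equal to vehicle treated cultures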
- condition.info: S. cerevisiae cln2 rad14 strain, at 5.0 µM (retest, dose inferred, filed as 0.5), active compounds read high
About 79,000 compounds went through this panel and 15% of them were active in at least one assay; those are over-represented in the sample as a whole.
Hi, to clarify the labels: Satisfied covers growth inhibition from 10% upward, Not satisfied covers anything below 10%.

Check out these entries, answers already filled in.
- compound: "Oc1ccc(CC2CCC(O)CC2)cc1 (stereo unspecified)"
  assigned.class: "Not satisfied"
- compound: "CC(=O)OC(C#N)CC(C)(C)/[N+]([O-])=[N+](\\[O-])C(C)(C)CC(C#N)OC(C)=O (stereo unspecified)"
  assigned.class: "Satisfied"

Task: Could you tell me if the measured growth inhibition of FC(F)(F)c1ccccc1NC(=S)SCc1ccc2c(c1)OCO2 reaches 10% or more?
Result: Not satisfied

Task: Could you tell me if the measured growth inhibition of CC[C@]1(O)C[C@H]2[C@@H]3CCc4cc(OC)ccc4[C@H]3CC[C@]2(C)[C@H]1O reaches 10% or more?
Result: Not satisfied

Task: Could you tell me if the measured growth inhibition of O=C1/C(=C/c2ccc(F)cc2)CNC/C1=C\c1ccc(F)cc1 reaches 10% or more?
Result: Satisfied

Task: Could you tell me if the measured growth inhibition of C/C(=N/NC(=S)Nc1ccccc1Cl)c1ccccn1 reaches 10% or more?
Result: Not satisfied

---

- assay: NCI Yeast Anticancer Drug Screen. Data for the mec2-1 strain (AID 157)
- condition.info: S. cerevisiae mec2-1 strain, at 50.0 µM (retest, dose inferred, filed as 5.0)
About 79,000 compounds went through this panel and 15% of them were active in at least one assay; those are over-represented in the sample as a whole. Active and inactive are the calls of the source. No stated cut-off is given here; in the data, active means growth inhibition above about 70%; inactive means the rest.
Your response should consist of one outcome taken from true (1) (active), false (0) (inactive)

- compound: "O=C(O)COc1cc(Br)cc(Br)c1-c1ccccc1"
  assigned.class: "true (1)"
- compound: "CC(=O)OC(C#N)CC(C)(C)/[N+]([O-])=[N+](\\[O-])C(C)(C)CC(C#N)OC(C)=O (stereo unspecified)"
  assigned.class: "false (0)"
- compound: "COc1ccc(NC(=O)CCC(=O)C(C)C(=O)c2ccccc2)cc1 (stereo unspecified)"
  assigned.class: "false (0)"

Task: Could you please tell me the result logged for C=CC1(NC(=O)c2ccccc2)CCC(C(C)(C)C)CC1 (stereo unspecified) in this assay?
Result: true (1)

Task: Could you please tell me the result logged for COc1ccc(-c2c(CO)cc(OC)c(OC)c2OC)c(CO)c1 in this assay?
Result: false (0)

Task: Could you please tell me the result logged for COC(=O)c1ccccc1CC(Cc1ccc2c(c1)CCC2)C(=O)OC (stereo unspecified) in this assay?
Result: false (0)

Task: Could you please tell me the result logged for Cc1c(O)c(Br)c(C)c(O)c1Br (tested in a mixture with another compound) in this assay?
Result: false (0)

Task: Could you please tell me the result logged for O=S1(=O)c2ccccc2C(=NO)c2ccccc21 in this assay?
Result: false (0)

Task: Could you please tell me the result logged for O=c1oc2c(-c3ccccc3)cccc2c(O)c1-c1ccccc1 in this assay?
Result: true (1)

Task: Could you please tell me the result logged for CCOC(=O)c1[nH]cnc1/N=N/c1nc(O)c(C#N)[nH]1 in this assay?
Result: true (1)

Task: Could you please tell me the result logged for O=[N+]([O-])c1c(I)ccc2ccccc12 in this assay?
Result: true (1)
